# TESTED SYSTEM: ecDHFR (wild-type, l-DHFR) (Escherichia coli, UniProt P0ABQ4)
# Sequence (P0ABQ4 1-159): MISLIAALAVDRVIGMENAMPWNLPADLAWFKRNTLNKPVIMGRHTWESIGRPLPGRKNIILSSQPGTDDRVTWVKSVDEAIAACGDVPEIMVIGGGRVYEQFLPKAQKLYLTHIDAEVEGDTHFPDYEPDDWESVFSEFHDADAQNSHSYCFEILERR
# MEASUREMENT PROTOCOL: stopped-flow fluorescence
# Assay type: binding
MEASURED PROPERTY: Kd (nM)
Give your result in nM as a bare value.

Which Kd value belongs to "NC(=O)C1=CN([C@@H]2O[C@H](COP(=O)(O)OP(=O)(O)OC[C@H]3O[C@@H](n4cnc5c(N)ncnc54)[C@H](OP(=O)(O)O)[C@@H]3O)[C@@H](O)[C@H]2O)C=CC1" ?
180
